Origin of measurements: paper PMC8910697

tested on: NCI-H660 cells; assay: Cell viability (CellTiter-Glo), NCI-H660; format: cell-based; settings: NCI-H660, 72 h; read-out: IC50 cell proliferation in NCI-H660
pIC50: −log10 of the molar value.

compound-string: N#Cc1ccc(NNC(=O)c2ccc(C#N)c(Cl)c2)c(C(F)(F)F)c1
pIC50: 5.15

* * *

experiment: Pharmacokinetics after IP and PO dosing; assay type: in vivo, male Balb/c mice; settings: male, Balb/c, mouse, plasma; IP, 10 mg/kg, 75:25 PG/PEG 400 formulation; read-out: Tmax IP (converted)
attribute-measured: Tmax

compound-string: N#Cc1ccc(NNC(=O)c2ccc(C(F)(F)F)cc2)c(C(F)(F)F)c1
result: 1 h
